Reference for the values: ChEMBL document CHEMBL3603768

target: 2-acylglycerol O-acyltransferase 2 (Homo sapiens, UniProt Q3SYC2); experiment: Inhibition of human recombinant MGAT2 assessed as reduction in enzyme-mediated deacylation of oleoyl-CoA incubated for 20 mins by CPM dye based fluorescence assay
Sequence (Q3SYC2 whole entry): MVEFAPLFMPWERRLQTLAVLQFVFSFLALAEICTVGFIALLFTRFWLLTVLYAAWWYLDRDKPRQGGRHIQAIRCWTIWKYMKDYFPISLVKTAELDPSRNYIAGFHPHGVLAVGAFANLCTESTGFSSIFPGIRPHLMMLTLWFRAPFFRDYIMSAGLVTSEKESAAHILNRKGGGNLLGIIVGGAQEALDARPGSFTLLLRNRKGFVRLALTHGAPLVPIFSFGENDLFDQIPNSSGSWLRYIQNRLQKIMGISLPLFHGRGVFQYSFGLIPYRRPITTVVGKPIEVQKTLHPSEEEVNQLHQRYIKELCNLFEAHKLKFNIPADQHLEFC
Parameter Measured: IC50 (nM)
The reply should contain only the number, in nM.

Assay 2-acylglycerol O-acyltransferase 2 (Homo sapiens, UniProt Q3SYC2), sample `CC(C)(C)c1ccc(CCN2CCc3cc(S(=O)(=O)Nc4ccc(F)cc4)ccc3C2)cc1` , IC50 read: 1520

Assay 2-acylglycerol O-acyltransferase 2 (Homo sapiens, UniProt Q3SYC2), sample `CC(C)(C)c1ccc(NC(=O)N2Cc3ccc(S(=O)(=O)Nc4ccc(F)cc4Cl)cc3C2)cc1` , IC50 read: 1110

Assay 2-acylglycerol O-acyltransferase 2 (Homo sapiens, UniProt Q3SYC2), sample `CC(C)(C)c1ccc(CC(=O)N2Cc3ccc(S(=O)(=O)Nc4ccc(F)cc4)cc3C2)cc1` , IC50 read: 8070

Assay 2-acylglycerol O-acyltransferase 2 (Homo sapiens, UniProt Q3SYC2), sample `COc1ccc(NS(=O)(=O)c2ccc3c(c2)CN(C(=O)Nc2ccc(C(C)(C)C)cc2)C3)c(OC)c1` , IC50 read: 3160

Assay 2-acylglycerol O-acyltransferase 2 (Homo sapiens, UniProt Q3SYC2), sample `CC(C)(C)c1ccc(CCN2Cc3ccc(S(=O)(=O)Nc4ccc(F)cc4)cc3C2)cc1` , IC50 read: 2120

Assay 2-acylglycerol O-acyltransferase 2 (Homo sapiens, UniProt Q3SYC2), sample `CC(C)(C)c1ccc(NC(=O)N2Cc3ccc(S(=O)(=O)Nc4ccc(F)cc4)cc3C2)cc1` , IC50 read: 594

Assay 2-acylglycerol O-acyltransferase 2 (Homo sapiens, UniProt Q3SYC2), sample `CCOc1ccc(NS(=O)(=O)c2ccc3c(c2)CN(C(=O)Nc2ccc(C(C)(C)C)cc2)C3)c(F)c1` , IC50 read: 5200

Assay 2-acylglycerol O-acyltransferase 2 (Homo sapiens, UniProt Q3SYC2), sample `CCOc1cc(F)ccc1NS(=O)(=O)c1ccc2c(c1)CN(C(=O)Nc1ccc(C(C)(C)C)cc1)C2` , IC50 read: 733

Assay 2-acylglycerol O-acyltransferase 2 (Homo sapiens, UniProt Q3SYC2), sample `CC(C)(C)c1ccc(CCN2CCc3ccc(S(=O)(=O)Nc4ccc(F)cc4)cc3C2)cc1` , IC50 read: 3060

Assay 2-acylglycerol O-acyltransferase 2 (Homo sapiens, UniProt Q3SYC2), sample `CCCOc1cc(F)ccc1NS(=O)(=O)c1ccc2c(c1)CN(C(=O)Nc1ccc(C(C)(C)C)cc1)C2` , IC50 read: 2300

Assay 2-acylglycerol O-acyltransferase 2 (Homo sapiens, UniProt Q3SYC2), sample `CCc1cc(F)ccc1NS(=O)(=O)c1ccc2c(c1)CN(C(=O)Nc1ccc(C(C)(C)C)cc1)C2` , IC50 read: 2490

Assay 2-acylglycerol O-acyltransferase 2 (Homo sapiens, UniProt Q3SYC2), sample `CCCCOc1ccc(NS(=O)(=O)c2ccc3c(c2)CN(C(=O)Nc2ccc(C(C)(C)C)cc2)C3)c(F)c1` , IC50 read: 547

Assay 2-acylglycerol O-acyltransferase 2 (Homo sapiens, UniProt Q3SYC2), sample `CCCOc1ccc(NS(=O)(=O)c2ccc3c(c2)CN(C(=O)Nc2ccc(C(C)(C)C)cc2)C3)c(F)c1` , IC50 read: 1980

Assay 2-acylglycerol O-acyltransferase 2 (Homo sapiens, UniProt Q3SYC2), sample `CC(C)(C)c1ccc(NC(=O)N2Cc3ccc(S(=O)(=O)Nc4ccc(F)cc4F)cc3C2)cc1` , IC50 read: 685
